Species: Rattus norvegicus
PROTOCOL NOTES: Reduction in triglyceride level in CFE rat […] in serum at 0.1% of diet treated through diet for 6 days relative to control
Type: functional
Set-up: scale not given: the % may be the effect or the level left
// classify: if (Activity < 90%) class 1 else class 0

COCCCCCCCCCCCOc1ccc(C(=O)O)cc1 | class 1

Activity strictly < 90% for this compound? "CCCCCCCCCCCCCCCCOc1ccc(C(=O)O)cc1"
class 1

Activity strictly < 90% for this compound? "CCCCCCCCCCCCCCCCOc1c(Cl)cc(C(=O)O)cc1Cl"
class 0

Activity strictly < 90% for this compound? "COC(=O)c1ccc(OCCCCCCCCCCCO)cc1"
class 1

Activity strictly < 90% for this compound? "CCCCCCCCCCC/C(CCOc1ccc(C(=O)OC)cc1)=N/O"
class 1

Activity strictly < 90% for this compound? "CCCCS(=O)(=O)CCCCCCCCCCCOc1ccc(C(=O)O)cc1"
class 1

Activity strictly < 90% for this compound? "CCCCCCCCCCCCCCCC(C)(C)Oc1ccc(C(=O)O)cc1"
class 0
